target desc: RNA-MBNL1 complexes (Homo sapiens, UniProt Q9NR56)
test details: TR-FRET inhibition, average over the RNA-MBNL1 complexes
quantity name: pIC50
Scale: pIC50 equals -log10([C]), with [C] in mol/L.

GET /value?item= "O=C(/C=C/c1cccs1)Nc1scc(-c2ccccc2)c1C(=O)O" &field=pIC50 returns 4.21

----------
Test system: r(CUG)12-MBNL1 complex
test details: TR-FRET inhibition of r
Format: binding
test settings: read-out: IC50, Compound 2; ligand pre-incubated with the RNA followed by addition of MBNL1
quantity name: IC50
Quick note: number first, unit second.

GET /value?item= "N#Cc1c(N2CCCC2)nc(N)c2c(N)nc(N3CCCC3)cc12" &field=IC50 returns 2000 nM

----------
target desc: MBNL1 (Homo sapiens)
test details: Competition dialysis
Assay type: binding
quantity name: Kd (µM)
Kindly answer with a numeric value in µM, unit omitted.

GET /value?item= O=C(/C=C/c1cccs1)Nc1scc(-c2ccccc2)c1C(=O)O [Compound 1] &field=Kd returns 0.47

----------
target desc: r(CGG)12-MBNL1 (Homo sapiens)
Sequence (Q9NR56 1-388): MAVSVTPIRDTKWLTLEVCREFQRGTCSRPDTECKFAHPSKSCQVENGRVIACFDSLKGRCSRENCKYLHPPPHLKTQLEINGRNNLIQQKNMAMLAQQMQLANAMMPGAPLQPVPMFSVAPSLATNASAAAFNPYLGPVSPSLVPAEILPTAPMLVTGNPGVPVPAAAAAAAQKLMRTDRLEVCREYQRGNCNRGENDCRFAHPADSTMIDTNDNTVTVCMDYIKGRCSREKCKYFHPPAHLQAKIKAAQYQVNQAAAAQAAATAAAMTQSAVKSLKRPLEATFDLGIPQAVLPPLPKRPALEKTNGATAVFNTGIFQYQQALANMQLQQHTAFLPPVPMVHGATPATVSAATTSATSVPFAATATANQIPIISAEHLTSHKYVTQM
quantity name: IC50 (µM)
Kindly answer with a numeric value in µM, unit omitted.

Result for "O=C(/C=C/c1cccs1)Nc1scc(-c2ccccc2)c1C(=O)O" , tested on r(CGG)12-MBNL1 (Homo sapiens), IC50: 54

----------
target desc: BSA (Bos taurus)
Sequence (P02769 25-607): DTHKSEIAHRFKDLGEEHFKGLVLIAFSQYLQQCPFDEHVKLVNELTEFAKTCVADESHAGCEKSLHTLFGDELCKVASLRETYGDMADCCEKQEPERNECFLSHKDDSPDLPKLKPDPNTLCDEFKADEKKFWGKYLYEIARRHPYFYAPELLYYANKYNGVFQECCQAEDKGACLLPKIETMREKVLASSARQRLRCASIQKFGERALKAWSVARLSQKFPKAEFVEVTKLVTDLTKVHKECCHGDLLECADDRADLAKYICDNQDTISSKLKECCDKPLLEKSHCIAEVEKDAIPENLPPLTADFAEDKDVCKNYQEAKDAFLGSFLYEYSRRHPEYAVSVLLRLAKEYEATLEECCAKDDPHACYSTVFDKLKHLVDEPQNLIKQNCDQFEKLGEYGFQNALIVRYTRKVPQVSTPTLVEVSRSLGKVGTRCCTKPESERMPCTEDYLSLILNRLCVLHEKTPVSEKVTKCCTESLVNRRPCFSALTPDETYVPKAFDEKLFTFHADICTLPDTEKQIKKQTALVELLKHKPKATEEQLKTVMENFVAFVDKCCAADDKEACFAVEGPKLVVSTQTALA
pKd: −log10 of the molar value.
quantity name: pKd

GET /value?item= N#Cc1c(N2CCCC2)nc(N)c2c(N)nc(N3CCCC3)cc12 [Compound 2] &field=pKd returns < 5.70

----------
System: C2C12 cells stably expressing firefly luciferase mRNA with r(CUG)800 in the 3' UTR
test details: Luciferase reporter model of the DM1 translational defect
Assay type: cell-based
test settings: 20 µM compound; +r(CUG)^exp; no change = 0%
quantity name: increase in luciferase activity relative to untreated cells

| molecule | target desc | result |
| --- | --- | --- |
| Oc1nc(Nc2ccc(F)cc2)cc2ccccc12 | C2C12 cells stably expressing firefly luciferase mRNA with r(CUG)800 in the 3' UTR | ca. 125% |
| O=C(/C=C/c1cccs1)Nc1scc(-c2ccccc2)c1C(=O)O | C2C12 cells stably expressing firefly luciferase mRNA with r(CUG)800 in the 3' UTR | ~ 700% |
| O=C(O)C1Nc2c(O)cccc2C2C=CCC12 (stereo not shown) | C2C12 cells stably expressing firefly luciferase mRNA with r(CUG)800 in the 3' UTR | ca. 125% |
| N#Cc1c(N2CCCC2)nc(N)c2c(N)nc(N3CCCC3)cc12 | C2C12 cells stably expressing firefly luciferase mRNA with r(CUG)800 in the 3' UTR | ~ 1600% |
